Cited source: patent US20250215030A1

- target or system: Recombinant STAT3 protein (STAT3(G127-I722)) (Homo sapiens, UniProt P40763)
- Construct: STAT3(G127-I722)
- Sequence (P40763 127-722, species assumed): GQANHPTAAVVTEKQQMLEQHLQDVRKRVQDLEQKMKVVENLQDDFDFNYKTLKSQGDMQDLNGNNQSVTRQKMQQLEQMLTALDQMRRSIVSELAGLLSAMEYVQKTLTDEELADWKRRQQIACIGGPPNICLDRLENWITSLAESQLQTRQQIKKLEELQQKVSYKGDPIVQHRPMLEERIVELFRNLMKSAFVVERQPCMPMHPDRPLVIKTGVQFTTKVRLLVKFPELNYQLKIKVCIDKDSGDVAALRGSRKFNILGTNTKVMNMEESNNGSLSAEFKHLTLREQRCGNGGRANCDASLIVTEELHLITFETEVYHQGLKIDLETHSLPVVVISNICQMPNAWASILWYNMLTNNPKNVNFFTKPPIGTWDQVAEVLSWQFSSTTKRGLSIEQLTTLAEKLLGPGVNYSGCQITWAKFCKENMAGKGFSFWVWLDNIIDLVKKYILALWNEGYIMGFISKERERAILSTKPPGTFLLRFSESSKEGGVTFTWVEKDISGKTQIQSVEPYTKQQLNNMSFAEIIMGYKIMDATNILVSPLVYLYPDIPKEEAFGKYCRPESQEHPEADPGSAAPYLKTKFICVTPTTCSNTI
- procedure text: STAT3 Fluorescence Polarization (FP) Assay
- test settings: STAT3(G127-I722) 25 nM, probe 5-FAM-GpYLPQTV-NH2 2 nM, 45-minute incubation
Catalogue of IC50 values

get_value(item= Cc1ccncc1C1CN(C(=O)[C@@H]2CC[C@@H]3C[C@H]4C[C@H]4C[C@H](NC(=O)c4cc5cc(CP(=O)(O)O)ccc5s4)C(=O)N32)C1 , readout=IC50) returns 100 to 1000 nM

So for CN(C)c1ccncc1C1CN(C(=O)[C@@H]2CC[C@@H]3C[C@@H]4C[C@@H]4C[C@H](NC(=O)c4cc5cc(CP(=O)(O)O)ccc5s4)C(=O)N32)C1 , the logged IC50 turned out to be < 100 nM

IC50 for O=C(N[C@H]1C[C@@H]2C[C@@H]2C[C@H]2CC[C@@H](C(=O)N[C@H]3CN(c4ncc[nH]4)C[C@@H]3F)N2C1=O)c1cc2cc(C(F)P(=O)(O)O)ccc2s1 (stereo partly drawn) is < 100 nM

* * *

- target or system: Recombinant STAT3 protein (STAT3(G127-I722)) (Homo sapiens)
- Construct: STAT3(G127-I722)
- procedure text: STAT3 Fluorescence Polarization (FP) Assay
- test settings: STAT3(G127-I722) 25 nM, probe 5-FAM-GpYLPQTV-NH2 2 nM, 45-minute incubation
Quick list: IC50 per entry.

CC(=O)N1CC2C1CCN2C(=O)[C@@H]1CC[C@@H]2C[C@H]3C[C@H]3C[C@H](NC(=O)c3cc4cc(C(F)(F)P(=O)(O)O)ccc4s3)C(=O)N21 (stereo partly shown); < 100 nM

Documented IC50 of CC(=O)N1CC[C@@H](NC(=O)[C@@H]2CC[C@@H]3C[C@H]4C[C@H]4C[C@H](NC(=O)c4cc5cc(C(F)(F)P(=O)(O)O)ccc5s4)C(=O)N32)C1 : < 100 nM

Note to self: IC50 recorded for N#C[C@@H]1[C@@H](c2cccnc2)CN(C(=O)[C@@H]2CC[C@@H]3C[C@H]4C[C@H]4C[C@H](NC(=O)c4cc5cc([C@H](F)P(=O)(O)O)ccc5s4)C(=O)N32)C12CC2 (single isomer, unassigned) was 1000 to 10000 nM

For CN(C)c1ccncc1C1CN(C(=O)[C@@H]2CC[C@@H]3C[C@H]4C[C@H]4C[C@H](NC(=O)c4cc5cc([C@H](F)P(=O)(O)O)ccc5s4)C(=O)N32)C1 (single isomer, unassigned) the compound record lists IC50 as < 100 nM

* * *

Items are presented alongside their recorded IC50.
- target or system: pSTAT6 (pY641-STAT6) (Homo sapiens)
- Sequence (P42226 whole entry): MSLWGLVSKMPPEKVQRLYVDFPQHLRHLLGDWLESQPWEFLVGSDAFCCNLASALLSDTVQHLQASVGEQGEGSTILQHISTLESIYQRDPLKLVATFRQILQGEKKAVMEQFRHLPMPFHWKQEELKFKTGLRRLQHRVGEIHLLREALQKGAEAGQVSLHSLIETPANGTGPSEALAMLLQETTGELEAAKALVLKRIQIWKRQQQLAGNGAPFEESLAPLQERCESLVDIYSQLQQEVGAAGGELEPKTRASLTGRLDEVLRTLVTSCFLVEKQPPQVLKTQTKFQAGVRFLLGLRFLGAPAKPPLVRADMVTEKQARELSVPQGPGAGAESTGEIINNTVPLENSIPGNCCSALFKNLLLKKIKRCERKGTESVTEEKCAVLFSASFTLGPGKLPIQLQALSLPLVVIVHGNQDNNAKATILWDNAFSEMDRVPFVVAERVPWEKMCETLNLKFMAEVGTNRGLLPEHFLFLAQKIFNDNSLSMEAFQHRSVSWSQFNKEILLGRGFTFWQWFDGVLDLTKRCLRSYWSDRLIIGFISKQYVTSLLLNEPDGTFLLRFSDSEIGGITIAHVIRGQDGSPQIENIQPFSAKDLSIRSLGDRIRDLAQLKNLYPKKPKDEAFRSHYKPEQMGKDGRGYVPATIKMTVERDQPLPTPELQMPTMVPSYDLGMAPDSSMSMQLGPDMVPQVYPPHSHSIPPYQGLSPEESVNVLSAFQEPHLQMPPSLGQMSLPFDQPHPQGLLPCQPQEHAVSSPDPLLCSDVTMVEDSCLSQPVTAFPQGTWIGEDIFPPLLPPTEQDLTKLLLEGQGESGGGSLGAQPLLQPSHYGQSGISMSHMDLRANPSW
- procedure text: MSD-pSTAT-PBMC Assay (pSTAT6, IL-4 stimulated)
- test settings: compound 3 hrs, then 1 ng/mL IL-4 for 10 min
- Protocol: Cryopreserved Peripheral Blood Mononuclear Cells (PBMC) are from AllCells. Recombinant Human IL-4 and IL-6 are from Peprotech. […] Cryopreserved PBMCs were thawed out and allowed to recover overnight in IMDM+10% heat-inactivated FBS prior to plating 50,000 (STAT3) or 25,000 (STAT6) cells per well in 96-well U-bottom tissue culture plates. […] Assay plates were then washed and 150 μL of 1× Read Buffer-T (MSD) was added to each well prior to reading on an SQ120 MSD Plate Reader. […]

Record excerpt, results attached:
CC(C)CC(=O)SCCOP(=O)(OCCSC(=O)CC(C)C)C(F)(F)c1ccc2sc(C(=O)N[C@H]3C[C@H]4C[C@H]4C[C@H]4CC[C@@H](C(=O)N5CC(n6ccnc6)C5)N4C3=O)cc2c1; > 3 µM
CC(C)CC(=O)SCCOP(=O)(Oc1ccccc1)C(F)(F)c1ccc2sc(C(=O)N[C@H]3C[C@H]4C[C@H]4C[C@H]4CC[C@@H](C(=O)N5CC(c6cccnc6)C5)N4C3=O)cc2c1 (stereo partly drawn); > 3 µM

Looking up CC(C)(C)C(=O)OCOP(=O)(OCOC(=O)C(C)(C)C)[C@@H](F)c1ccc2sc(C(=O)N[C@H]3C[C@@H]4C[C@@H]4C[C@H]4CC[C@@H](C(=O)N5CC(C(=O)N6CCOCC6)C5)N4C3=O)cc2c1 (single isomer, unassigned) [Compound 183] , I see its IC50 listed as 0.1 to 1 µM

GET /value?item= CC(C)(C)C(=O)SCCOP(=O)(Cc1ccc2sc(C(=O)N[C@H]3C[C@@H]4C[C@@H]4C[C@H]4CC[C@@H](C(=O)N5CC(n6ccnc6)C5)N4C3=O)cc2c1)OCCSC(=O)C(C)(C)C &field=IC50 returns > 3 µM

* * *

Each entry below lists one item and its recorded IC50 value.
- target or system: Recombinant STAT3 protein (STAT3(G127-I722)) (Homo sapiens, UniProt P40763)
- Construct: STAT3(G127-I722)
- procedure text: STAT3 Fluorescence Polarization (FP) Assay
- test settings: STAT3(G127-I722) 25 nM, probe 5-FAM-GpYLPQTV-NH2 2 nM, 45-minute incubation

Solved entries (count: 2):
O=C(N[C@H]1C[C@@H]2C[C@@H]2C[C@H]2CC[C@@H](C(=O)N3CCN(c4ccccn4)CC3)N2C1=O)c1cc2cc(C(F)(F)P(=O)(O)O)ccc2s1; 100 to 1000 nM
CC(C(N)=O)c1cc(-c2ccccc2)ccc1NC(=O)[C@@H]1CC[C@@H]2C[C@H]3C[C@H]3C[C@H](NC(=O)c3cc4cc(C(F)(F)P(=O)(O)O)ccc4s3)C(=O)N21 (stereo partly shown); 100 to 1000 nM

For reference, reported IC50 for O=C(N[C@H]1C[C@@H]2C[C@@H]2C[C@H]2CC[C@@H](C(=O)N3CCN(C4COC4)c4ccccc43)N2C1=O)c1cc2cc(C(F)P(=O)(O)O)ccc2s1 (stereo partly shown) stands at 1000 to 10000 nM

Quick note, IC50 for C[C@@H]1[C@@H](n2ccnc2)CN1C(=O)[C@@H]1CC[C@@H]2C[C@H]3C[C@H]3C[C@H](NC(=O)c3cc4cc(C(F)(F)P(=O)(O)O)ccc4s3)C(=O)N21 landed at < 100 nM

Looking up CS(=N)(=O)CC1CN(C(=O)[C@@H]2CC[C@@H]3C[C@H]4C[C@H]4C[C@H](NC(=O)c4cc5cc(C(F)P(=O)(O)O)ccc5s4)C(=O)N32)C1 (stereo partly shown) , I found its IC50 recorded as < 100 nM

Per the records, this compound ( C[C@@H]1CN(C(=O)C2CN(C(=O)[C@@H]3CC[C@@H]4C[C@H]5C[C@H]5C[C@H](NC(=O)c5cc6cc(C(F)(F)P(=O)(O)O)ccc6s5)C(=O)N43)C2)CCO1 ) has IC50 equal to < 100 nM

compound CN(C)c1ccncc1[C@H]1CN(C(=O)[C@@H]2CC[C@@H]3C[C@H]4C[C@H]4C[C@H](NC(=O)c4cc5cc([C@H](F)P(=O)(O)O)ccc5s4)C(=O)N32)C2(CC2)C1 (single isomer, unassigned) , IC50 observed: < 100 nM

Consider O=C(N[C@H]1C[C@@H]2C[C@@H]2C[C@H]2CC[C@@H](C(=O)N3CC(N4CCS(=O)(=O)CC4)C3)N2C1=O)c1cc2cc(C(F)(F)P(=O)(O)O)ccc2s1 . Its measured IC50 is < 100 nM

response.value for CN(C)c1ccncc1C1CN(C(=O)[C@@H]2CC[C@@H]3C[C@H]4C[C@H]4C[C@H](NC(=O)c4cc5cc([C@@H](F)P(=O)(O)O)ccc5s4)C(=O)N32)C1 (single isomer, unassigned) (field: IC50) = < 100 nM

Form field IC50, entry O=C(N[C@H]1C[C@@H]2C[C@@H]2C[C@H]2CC[C@@H](C(=O)N3C[C@@H]4[C@H]3CCN4c3cccnc3)N2C1=O)c1cc2cc(C(F)P(=O)(O)O)ccc2s1 (stereo partly shown) : < 100 nM

* * *

- target or system: Recombinant STAT6 protein (STAT6(W123-T658)) (Homo sapiens)
- Construct: STAT6(W123-T658)
- Sequence (P42226 123-658, species assumed): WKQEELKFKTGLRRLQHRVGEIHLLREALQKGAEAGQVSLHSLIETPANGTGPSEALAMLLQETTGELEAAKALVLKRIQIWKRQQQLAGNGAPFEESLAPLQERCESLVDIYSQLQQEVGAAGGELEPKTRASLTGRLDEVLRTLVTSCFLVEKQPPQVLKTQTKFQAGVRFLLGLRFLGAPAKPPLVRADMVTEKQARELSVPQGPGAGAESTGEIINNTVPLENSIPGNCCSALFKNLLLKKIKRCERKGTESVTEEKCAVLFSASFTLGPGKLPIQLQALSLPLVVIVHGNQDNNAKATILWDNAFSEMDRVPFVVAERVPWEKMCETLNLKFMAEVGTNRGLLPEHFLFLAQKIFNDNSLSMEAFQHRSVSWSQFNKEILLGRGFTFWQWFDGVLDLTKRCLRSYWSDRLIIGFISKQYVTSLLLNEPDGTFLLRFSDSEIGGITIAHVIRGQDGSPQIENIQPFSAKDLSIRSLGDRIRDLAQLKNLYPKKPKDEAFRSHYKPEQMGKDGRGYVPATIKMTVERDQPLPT
- procedure text: STAT6 Fluorescence Polarization (FP) Assay
- test settings: STAT6(W123-T658) 250 nM, probe 5-FAM-ApYKPFQDLI-NH2 2 nM, 45-minute incubation
assay readout: IC50

Some compounds with known IC50 results, for comparison:
CC(=O)N1C[C@H](NC(=O)[C@@H]2CC[C@@H]3C[C@@H]4C[C@@H]4C[C@H](NC(=O)c4cc5cc(CP(=O)(O)O)ccc5s4)C(=O)N32)[C@@H](F)C1 [Example 244]; 3 to 30 µM
O=C(N[C@H]1C[C@@H]2C[C@@H]2C[C@H]2CC[C@@H](C(=O)N[C@H]3CN(c4nc[nH]n4)C[C@@H]3F)N2C1=O)c1cc2cc(C(F)P(=O)(O)O)ccc2s1 (stereo partly shown) [Example 347]; 3 to 30 µM
N#Cc1ccc(C2CN(C(=O)[C@@H]3CC[C@@H]4C[C@@H]5C[C@@H]5C[C@H](NC(=O)c5cc6cc(C(F)(F)P(=O)(O)O)ccc6s5)C(=O)N43)C2)cc1 [Compound 74]; 0.3 to 3 µM
CC(=O)N1CCC2C1CN2C(=O)[C@@H]1CC[C@@H]2C[C@H]3C[C@H]3C[C@H](NC(=O)c3cc4cc(C(F)(F)P(=O)(O)O)ccc4s3)C(=O)N21 (stereo partly shown) [Example 270]; 0.3 to 3 µM
O=C(N[C@H]1C[C@@H]2C[C@@H]2C[C@H]2CC[C@@H](C(=O)N3CC(c4ccccc4)C3)N2C1=O)c1cc2cc(C(F)P(=O)(O)O)ccc2s1 (stereo partly shown) [Example 390]; 3 to 30 µM
O=C(N[C@H]1C[C@H]2C[C@H]2C[C@H]2CC[C@@H](C(=O)N3CC(c4[nH]nc5c4CCC5)C3)N2C1=O)c1cc2cc(C(F)(F)P(=O)(O)O)ccc2s1 [Compound 77]; 3 to 30 µM
O=C(N[C@H]1C[C@@H]2C[C@@H]2C[C@H]2CC[C@@H](C(=O)N3CCN(C4COC4)c4ccccc43)N2C1=O)c1cc2cc(C(F)P(=O)(O)O)ccc2s1 (stereo partly shown) [Example 387]; 3 to 30 µM
O=C(N[C@H]1C[C@@H]2C[C@@H]2C[C@H]2CC[C@@H](C(=O)N3CCC4C3CN4c3cccnc3)N2C1=O)c1cc2cc(CP(=O)(O)O)ccc2s1 (stereo partly shown) [Example 261]; 3 to 30 µM
COC[C@@H]1CCN1c1ccncc1C1CN(C(=O)[C@@H]2CC[C@@H]3C[C@H]4C[C@H]4C[C@H](NC(=O)c4cc5cc([C@@H](F)P(=O)(O)O)ccc5s4)C(=O)N32)C1 (single isomer, unassigned) [Example 410]; 3 to 30 µM

Attention now shifts to the item below.
Lab book: IC50 of NC(=O)N1C[C@H](NC(=O)[C@@H]2CC[C@@H]3C[C@H]4C[C@H]4C[C@H](NC(=O)c4cc5cc(C(F)P(=O)(O)O)ccc5s4)C(=O)N32)C(F)(F)C1 (stereo partly shown) [Example 340] noted as 3 to 30 µM
